- test.target: human ADRA2B receptor (Homo sapiens, UniProt P18089)
- Construct: expressed in transfected cells
- Sequence (P18089 whole entry): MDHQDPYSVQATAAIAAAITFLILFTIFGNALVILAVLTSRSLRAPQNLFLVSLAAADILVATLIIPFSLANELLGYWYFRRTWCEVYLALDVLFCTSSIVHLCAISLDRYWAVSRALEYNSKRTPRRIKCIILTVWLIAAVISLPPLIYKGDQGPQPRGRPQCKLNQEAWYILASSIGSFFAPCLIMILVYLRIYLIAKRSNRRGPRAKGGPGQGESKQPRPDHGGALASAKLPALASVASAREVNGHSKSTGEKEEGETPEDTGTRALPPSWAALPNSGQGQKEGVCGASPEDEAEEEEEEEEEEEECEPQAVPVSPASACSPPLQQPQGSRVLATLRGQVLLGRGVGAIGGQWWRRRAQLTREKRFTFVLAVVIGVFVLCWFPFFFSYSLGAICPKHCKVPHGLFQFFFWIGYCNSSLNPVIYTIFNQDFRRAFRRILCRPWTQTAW
- assay.comment: GTPγS agonist assay, ADRA2B receptor
- Format: biochemical
- test.conditions: read-out: GTPase - Human Alpha2B EC50
pEC50: −log10 of the molar value.
value.kind: pEC50

Q: I would be grateful if you could share the reported pEC50 for Cc1cccc(C(Cc2ncco2)c2c[nH]cn2)c1C (centres unmarked) [Compound 117] .
Ans: 6.30 to 7.30

Q: Tell me the measured pEC50 of c1ccc(C[C@H](c2cnc[nH]2)c2cccc3c2CCO3)nc1 [Compound 41] , please.
Ans: > 8.00

Q: State the recorded pEC50 for this entry: COc1cccc(C[C@@H](c2cccc(C)c2)c2cnc[nH]2)n1 [Compound 23]
Ans: > 8.00

Q: I have this molecule here, Cc1cccc(C(Cc2cccnn2)c2c[nH]cn2)c1 (centres unmarked) [Compound 228] , and I need its recorded pEC50.
Ans: < 6.30

Q: What does the record list as pEC50 for Cc1cccc(C(Cc2cnn(C(C)C)c2)c2c[nH]cn2)c1C (centres unmarked) [Compound 277] ?
Ans: 7.30 to 8.00
